test system: IL-6; assay: IL-6 ELISA of conditioned media from X-irradiated senescent HCA2 fibroblasts; type: cell-based, human; settings: Homo sapiens, HCA2; sub-nM concentrations; read-out: concentration reducing senescence-associated IL-6 secretion by 50%
PROPERTY: IC50

Enquiry: Sample C[C@]12CCC(=O)C=C1CC[C@@H]1[C@@H]2[C@@H](O)C[C@@]2(C)[C@H]1CC[C@]2(O)C(=O)CO — what was its IC50?
Return: 0.16 to 0.8 nM
